Listing of recorded Percent Effect by entry.
- Species: Homo sapiens
- assay-overview: To identify inhibition of the IFN signalling (Jak-Stat) pathway via expression of an eGFP reporter gene under the control of an IFN-stimulated response element (ISRE) containing MxA promoter.
- Format: functional
- Set-up: scale not given: direction of the effect not stated beside the values
- test-parameters: 30 µM
Write the answer as a number in %, unit excluded.

Take a look at these entries with their results.
- O=C(c1cnn2c1OCCC2)N1CCC2(CC1)OCCO2: 14.6
- O=C1CC[C@@H]2[C@@H](CCN2Cc2ccncc2)N1c1ccccc1: -5.31
- CC[C@H](N)Cn1nc(-c2cccs2)oc1=O: 2.87
- c1ccc(OC[C@H]2CCC[C@]23CN(Cc2nccs2)CCO3)nc1: 34.4
- CC(C)N1CCC2(CCN(C(=O)c3cccnc3)CC2)C1: -1.74

Please look at the following compound next.
Requested field: Percent Effect. Item: `NC(=O)N1C[C@H]2CN(Cc3nccs3)C[C@H]2C1`
5.62
